Test system: EKVX
Assay overview: relative viability (nuclei count vs DMSO), 5 days (fraction); higher = more cells survive
Study conditions: first compound 0.003162 µM
Form field: relative viability (one value per entry).

INSERT INTO assay_data (compound, value_reported) VALUES
  ('Cc1cn(-c2cc(NC(=O)c3ccc(C)c(Nc4nccc(-c5cccnc5)n4)c3)cc(C(F)(F)F)c2)cn1 [Nilotinib] + Nc1nc2[nH]cc(CCc3ccc(C(=O)N[C@@H](CCC(=O)O)C(=O)O)cc3)c2c(=O)[nH]1 [Pemetrexed] (partner 0.2 µM)', 0.27),
  ('Cc1cn(-c2cc(NC(=O)c3ccc(C)c(Nc4nccc(-c5cccnc5)n4)c3)cc(C(F)(F)F)c2)cn1 [Nilotinib] + CC1(C)CCC(c2ccc(Cl)cc2)=C(CN2CCN(c3ccc(C(=O)NS(=O)(=O)c4ccc(N[C@H](CCN5CCOCC5)CSc5ccccc5)c(S(=O)(=O)C(F)(F)F)c4)cc3)CC2)C1 [Navitoclax] (partner 0.5 µM)', 1.29),
  ('Cc1cn(-c2cc(NC(=O)c3ccc(C)c(Nc4nccc(-c5cccnc5)n4)c3)cc(C(F)(F)F)c2)cn1 [Nilotinib] + Cc1nc(Nc2ncc(C(=O)Nc3c(C)cccc3Cl)s2)cc(N2CCN(CCO)CC2)n1 [Dasatinib] (partner 0.075 µM)', 0.477),
  ('Cc1cn(-c2cc(NC(=O)c3ccc(C)c(Nc4nccc(-c5cccnc5)n4)c3)cc(C(F)(F)F)c2)cn1 [Nilotinib] + Cc1cc(Nc2cc(N3CCN(C)CC3)nc(Sc3ccc(NC(=O)C4CC4)cc3)n2)n[nH]1 [Tozasertib] (partner 0.1 µM)', 0.341),
  ('Cc1cn(-c2cc(NC(=O)c3ccc(C)c(Nc4nccc(-c5cccnc5)n4)c3)cc(C(F)(F)F)c2)cn1 [Nilotinib] + CC(=O)c1c(C)c2cnc(Nc3ccc(N4CCNCC4)cn3)nc2n(C2CCCC2)c1=O [Palbociclib] (partner 0.5 µM)', 0.492);

Query (compound): Cc1cn(-c2cc(NC(=O)c3ccc(C)c(Nc4nccc(-c5cccnc5)n4)c3)cc(C(F)(F)F)c2)cn1 [Nilotinib] + Cc1nc(NC(=O)N2CCC[C@H]2C(N)=O)sc1-c1ccnc(C(C)(C)C(F)(F)F)c1 [Alpelisib] (partner 2 µM) ; field requested: relative viability
1.13

Proceed to Cc1cn(-c2cc(NC(=O)c3ccc(C)c(Nc4nccc(-c5cccnc5)n4)c3)cc(C(F)(F)F)c2)cn1 [Nilotinib] + NC(=O)Nc1cc(-c2cccc(F)c2)sc1C(=O)N[C@H]1CCCNC1 [AZD7762] (partner 0.2 µM)
0.654

And the next one, Cc1cn(-c2cc(NC(=O)c3ccc(C)c(Nc4nccc(-c5cccnc5)n4)c3)cc(C(F)(F)F)c2)cn1 [Nilotinib] + O=C(CCCCCCC(=O)Nc1ccccc1)NO [Vorinostat] (partner 1 µM) ?
0.879
